- assayed_target: T1, hmm.hTfRC (REGN2431), human transferrin receptor extracellular domain with hexahistidine-myc-myc tag (human, UniProt P02786 89-760)
- T1 construct: Monomeric recombinant protein, 79210 g/mol; also called hTFR-mmh; His-myc-myc-hTFRC ecto
- T1 sequence (P02786 other isoform, or with tags, fused parts or gaps): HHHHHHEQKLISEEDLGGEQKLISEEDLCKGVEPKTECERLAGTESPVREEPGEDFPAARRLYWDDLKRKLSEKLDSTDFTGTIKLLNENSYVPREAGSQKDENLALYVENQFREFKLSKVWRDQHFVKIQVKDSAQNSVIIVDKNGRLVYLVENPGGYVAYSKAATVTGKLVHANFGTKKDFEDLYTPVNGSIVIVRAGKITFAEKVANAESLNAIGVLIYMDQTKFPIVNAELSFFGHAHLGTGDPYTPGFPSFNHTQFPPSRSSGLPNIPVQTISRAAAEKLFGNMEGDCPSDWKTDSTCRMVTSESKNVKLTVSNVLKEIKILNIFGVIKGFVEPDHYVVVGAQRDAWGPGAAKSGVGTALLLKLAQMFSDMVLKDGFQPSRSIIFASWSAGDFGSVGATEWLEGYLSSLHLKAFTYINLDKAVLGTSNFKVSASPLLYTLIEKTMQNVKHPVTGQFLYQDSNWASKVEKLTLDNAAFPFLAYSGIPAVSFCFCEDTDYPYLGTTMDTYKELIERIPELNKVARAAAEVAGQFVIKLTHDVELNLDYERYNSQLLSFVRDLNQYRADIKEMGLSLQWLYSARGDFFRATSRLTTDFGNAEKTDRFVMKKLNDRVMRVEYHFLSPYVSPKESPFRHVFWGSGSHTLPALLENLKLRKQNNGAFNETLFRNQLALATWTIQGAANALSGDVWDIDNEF
- assay_details: SPR (Biacore), mAb captured on anti-human Fc, 100 nM hTFR-mmh, 25 C
Form field: Kd (one value per entry).
Report the figure in pM without appending any unit label.

binder	Kd, pM
69326 (antibody, human IgG1, kappa, V domains shown, Tested as bivalent human IgG1 from CHO primary supernatant) VH: EVQLVESGGGLVQPGGSLRLSCAVSGFIFSSYEMNWVRQAPGKGLEWVSYISSSGSTIFYADSVKGRFTISRDNAKNSLYLQMNSLRAEDTAVYYCVSGVVLFDVWGQGTMVTVSS VL: EIVMTQSPATLSVSPGERATLSCRASQSVSSNFAWYQQKPGQAPRLLIYSASSRATGIPVRFSGSGSGTEFTLTISSLQSEDFAVYYCQQYNIWPRTFGQGTKVEIKR	2220
69329 (antibody, human IgG1, kappa, V domains shown, Tested as bivalent human IgG1 from CHO primary supernatant) VH: EVQLVESGGGLVQPGGSLRLSCAASGFTFSNYWMTWVRQAPGKGLEWVANIKEDGSEKDYVDSVKGRFTISRDNAKNSLYLQMNSLRGEDTAVYYCARDGEQLVDYYYYYVMDVWGQGTTVTVSS VL: DIQMTQSPSSVSASVGDRVTITCRASQGISSWLAWYQQKPGKAPKLLIYAASSLQSGVPSRFSGSGSGTDFTLTISSLQPEDFATYYCQKANSFPYTFGQGTKLEIKR	970

Then this binder:
Kd in this record for 12808B (antibody, human IgG1, kappa, V domains shown, Tested as bivalent human IgG1 from CHO primary supernatant) VH: QLQLQESGPGLVKPSETLSLTCTVSGESISSNTYYWGWIRQPPGKGLEWIGSIDYSGTTNYNPSLKSRVTISVDTSRNHFSLRLRSVTAADTAVYYCAREWGNYGYYYGMDVWGQGTTVTVSS VL: DIQMTQSPSSLSASVGDRVTINCRASQGIRNDLGWYQQKPGKAPKRLIYAASSLQSGVPLRFSGSGSGTEFTLTINNLQPEDFATYYCLSHNSYPWTFGQGTKVEIKR : 894
